# Test system: MDA-N
# assayName: NCI tumour cell line growth inhibition, 48 h
Residues, ends and D or L forms follow the SMILES beside them. *: point of attachment. Boc = CC(C)(C)OC(=O)*; OBn = c1ccc(CO*)cc1
assayMetric: TGI

Your task in this section: give TGI for each listed record.
1. NC(=O)C(=O)C(c1ccccc1)S(=O)(=O)Cc1ccccc1 (centres undefined)
2. Cc1c(N/C=C(\C#N)C(=O)c2ccc(Cl)cc2)c(=O)n(-c2ccccc2)n1C
3. O=C1N[C@@H]2c3c(Br)sc(Br)c3C(=O)[C@@H]2O1
4. COc1cc(Nc2nnc3n2S(=O)(=O)c2cc(C)c(Cl)cc2S3)cc(OC)c1
5. Cc1nc2ccc(NC3OC(CO)C(O)C(O)C3O)cc2c(=O)n1-c1ccccc1 (centres undefined)
6. O=C(N/N=C/c1ccccc1O)c1ccccc1Nc1ccccc1C(=O)N/N=C/c1ccccc1O
7. CCOC(=O)c1oc2ccc([N+](=O)[O-])c3c2c1CCC3
8. COC(=O)[C@]1(c2cc3ccccc3[nH]2)CC2CN(CC(=O)N(C)OC)C1CC2(OC)OC (some centres undefined)

["> 100 µM", "> 100 µM", "6.44 µM", "> 100 µM", "> 100 µM", "> 100 µM", "> 100 µM", "> 100 µM"]

Kindly give each listed record's TGI.
1. O=c1[nH]nc(Cn2c3ccc(Br)cc3c3nc4ccccc4nc32)n1C1CCCCC1
2. CCN(CC)c1ccc2cc(-c3nnc(-c4ccccc4O)o3)c(=O)oc2c1
3. COC(=O)[C@@H](Cc1ccccc1)N1O[C@]12CCCC[C@@H]2NC(=O)OC(C)(C)C (some centres undefined)
4. CN(C)CCn1c(=O)c2ccc3c4c(nn3CCN(C)C)c3cc([N+](=O)[O-])ccc3n(c1=O)c24
5. O=c1oc2ccc(Cl)cc2cc1-c1cn2ccccc2n1
6. CC(=O)c1cccc(NC(=O)C(=O)C(c2cnc3ccc([N+](=O)[O-])cc3n2)[N+](=O)[O-])c1 (centres undefined)
7. CCOc1ccc(N=NS(=O)(=O)O)cc1
8. CC1Cc2cc(O)c(O)cc2-c2cc(O)c(O)cc2CC1C (centres undefined)

["> 100 µM", "30.7 µM", "39.1 µM", "0.243 µM", "> 100 µM", "> 100 µM", "> 100 µM", "11.7 µM"]

Take each entry in turn and give its TGI.
1. CC(C)CC(NC(=O)OC(C)(C)C)C(=O)N1CCCC1C(=O)OCc1ccccc1 (stereo not drawn) (Boc-Leu-Pro-OBn; configuration not given here)
2. COC1=CC(=O)c2c(c(COP(=O)(N(C)CCBr)N(C)CCBr)cn2C)C1=O
3. O=C(O)CNn1c(SCC(=O)O)nnc(/C=C/c2c(O)ccc3ccccc23)c1=O

["> 100 µM", "0.274 µM", "> 100 µM"]

Would you mind listing TGI for each of the following molecules?
1. O=[N+]([O-])/C(C(Cl)=C(Cl)Cl)=C(\Nc1ccccc1)n1nnc2ccccc21
2. O=c1c2cc(I)ccc2nc(SCc2n[nH]c(=S)o2)n1Cc1ccccc1
3. C/C(=N\NC(=S)N1CC2CCC(CC2)C1)c1cccc(C)n1
4. C=CC(Br)(CBr)CCC(Br)C(C)(C)Cl (centres undefined)
5. CN(C)c1ccc(-c2ccc(N(C)C)c3n[se]nc23)c2n[se]nc12
6. N#Cc1c(O)cc(=O)n2c1[nH]c1ccccc12

["> 100 µM", "32 µM", "17.8 µM", "8.34 µM", "> 100 µM", "> 100 µM"]

Provide reported TGI for each item, in the same order as listed.
1. O=C(NC(Nc1ccc(F)cc1)(C(F)(F)F)C(F)(F)F)C(C(F)(F)F)C(F)(F)F
2. CC1=CC(C)C(C)N(CCNS(=O)(=O)c2ccc(C)cc2)c2ccccc21 (centres undefined)
3. O=C(Cc1nc2ncccc2[nH]c1=O)c1c[nH]c2ccccc12
4. C=C(CC(=O)O)C(=O)O (tested in a mixture with another compound)

> 100 µM
18.8 µM
45.4 µM
> 50 µg/mL
